All figures here come from patent US11999727B2.

target: PRMT5 (Homo sapiens); construct: purchased Viva (custom protein); assay: PRMT5 biochemical IC50 assay with no cofactor; details: PRMT5, no cofactor; read-out: No Cofactor/rel IC50
pIC50: −log10 of the molar value.
PARAMETER: pIC50

Recorded results for 3 compounds are shown here.
> print(dat)
                                   compound  parameter        result
1  CN(C)c1cccc([C@H]2CCCCN2C(=O)C(=O)Nc2cncc(C(N)=O)c2)c1 (single isomer, unassigned)      pIC50        < 6.30
2  Cc1cc(NC(=O)C(=O)N2CC[C@@H](C)C[C@H]2c2ccccc2)cnc1N (racemic)      pIC50  6.30 to 7.30
3  C[C@@H]1CC[C@@H](c2ccc(C(F)(F)F)cc2)N(C(=O)C(=O)Nc2cncc(C(N)=O)c2)C1 (racemic) [Compound 251]      pIC50  6.30 to 7.30

Incoming: Tell me the measured pIC50 of Cc1cc(NC(=O)C(=O)N2C[C@H](C)CC[C@H]2c2cccnc2)cnc1N (single isomer, unassigned) , please.
Outgoing: 6.30 to 7.30

Incoming: Tell me the measured pIC50 of C[C@@H]1CC[C@@H](c2ccc3ccoc3c2)N(C(=O)C(=O)Nc2cncc(C(N)=O)c2)C1 (racemic) , please.
Outgoing: 6.30 to 7.30

Incoming: Tell me the measured pIC50 of Cc1cc(NC(=O)C(=O)N2C[C@H](C)CC[C@H]2C2CC3(CCC3)C2)cnc1N (racemic) , please.
Outgoing: < 6.30

Incoming: Tell me the measured pIC50 of COc1ncc(NC(=O)C(=O)N2C[C@@H](C)CC[C@@H]2c2ccc3sc([C@H]4CCN(C)C[C@@H]4C)nc3c2)cc1C(N)=O (racemic) , please.
Outgoing: > 7.30

* * *

The following molecules are listed with their measured IC50 values.
target: PRMT5 (Homo sapiens, UniProt O14744); construct: purchased Viva (custom protein); assay: PRMT5 biochemical IC50 assay with no cofactor; conditions: PRMT5, no cofactor; read-out: No Cofactor/rel IC50
Sequence (O14744 whole entry): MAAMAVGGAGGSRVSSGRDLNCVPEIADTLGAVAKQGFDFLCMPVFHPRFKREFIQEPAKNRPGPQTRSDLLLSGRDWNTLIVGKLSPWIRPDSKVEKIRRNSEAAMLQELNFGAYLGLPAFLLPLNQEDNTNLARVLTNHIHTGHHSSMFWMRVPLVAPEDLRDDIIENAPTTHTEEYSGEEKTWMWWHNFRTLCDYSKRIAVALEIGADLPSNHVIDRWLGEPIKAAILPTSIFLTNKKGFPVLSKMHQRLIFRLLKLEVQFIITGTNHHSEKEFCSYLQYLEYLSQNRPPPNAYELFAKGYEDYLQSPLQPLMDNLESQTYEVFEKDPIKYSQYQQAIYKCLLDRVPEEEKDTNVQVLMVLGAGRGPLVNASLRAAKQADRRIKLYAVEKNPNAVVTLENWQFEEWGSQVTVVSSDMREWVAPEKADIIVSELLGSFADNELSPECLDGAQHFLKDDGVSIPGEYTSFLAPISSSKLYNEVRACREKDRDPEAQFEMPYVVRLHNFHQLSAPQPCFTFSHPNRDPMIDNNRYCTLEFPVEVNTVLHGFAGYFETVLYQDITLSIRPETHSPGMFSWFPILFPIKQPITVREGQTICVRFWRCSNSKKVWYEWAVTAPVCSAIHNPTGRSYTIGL
Sequence (Q9BQA1 whole entry partner): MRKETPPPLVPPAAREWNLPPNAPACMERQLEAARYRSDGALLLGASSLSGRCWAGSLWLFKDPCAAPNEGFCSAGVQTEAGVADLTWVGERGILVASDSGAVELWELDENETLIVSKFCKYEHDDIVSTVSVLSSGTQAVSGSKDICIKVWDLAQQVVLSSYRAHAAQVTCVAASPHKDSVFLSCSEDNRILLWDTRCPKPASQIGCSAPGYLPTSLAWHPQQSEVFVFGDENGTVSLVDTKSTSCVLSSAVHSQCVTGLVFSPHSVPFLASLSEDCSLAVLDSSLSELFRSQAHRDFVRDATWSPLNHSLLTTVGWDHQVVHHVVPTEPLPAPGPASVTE

Recorded results for 4 molecules are shown here.
> print(dat)
                                   molecule  parameter        result
1  C[C@@H]1CC[C@H](c2ccc(N[C@@H]3CCN(C)C3=O)cc2)N(C(=O)C(=O)Nc2cncc(C(N)=O)c2)C1 (racemic)       IC50  50 to 500 nM
2  Cc1cc(NC(=O)C(=O)N2C[C@@H](C)CC[C@@H]2[C@H]2CCC[C@@H](O)C2)cnc1N (single isomer, unassigned)       IC50  50 to 500 nM
3  Cc1cc(NC(=O)C(=O)N2C[C@H](C)CC[C@H]2c2cccc3[nH]ncc23)cnc1N (racemic) [Compound 690]       IC50  50 to 500 nM
4  COc1ncc(NC(=O)C(=O)N2C[C@@H](C)CC[C@@H]2c2ccc3nn(C4CCN(C)CC4)cc3c2)cc1C(N)=O (racemic)       IC50       < 50 nM

Incoming: Tell me the measured IC50 of Cc1cc(NC(=O)C(=O)N2C[C@@H](C)CC[C@@H]2c2ccncc2)cnc1N (single isomer, unassigned) , please.
Outgoing: > 500 nM

* * *

The following compounds are listed with their measured IC50 values.
molecular target: PRMT5 (Homo sapiens, UniProt O14744); construct: purchased Viva (custom protein); experiment: PRMT5 biochemical IC50 assay with SAM as cofactor; details: PRMT5, SAM as cofactor; read-out: SAM IC50

Incoming: Tell me the measured IC50 of CC[C@H]1CC[C@H](c2ccccc2)N(C(=O)C(=O)Nc2cncc(C(N)=O)c2)C1 (single isomer, unassigned) , please.
Outgoing: 50 to 500 nM

Incoming: Tell me the measured IC50 of NC(=O)c1cncc(NC(=O)C(=O)N2C[C@@H](CC(F)(F)F)CC[C@H]2c2ccccc2)c1 (racemic) , please.
Outgoing: > 500 nM

Incoming: Tell me the measured IC50 of Cc1cc([C@H]2CC[C@H](C)CN2C(=O)C(=O)Nc2cnc(N)c(C)c2)ccc1O (single isomer, unassigned) , please.
Outgoing: > 500 nM

* * *

target: PRMT5 (Homo sapiens); construct: purchased Viva (custom protein); test: PRMT5 biochemical IC50 assay with no cofactor; details: PRMT5, no cofactor; read-out: No Cofactor/rel IC50
pIC50: −log10 of the molar value.
The following molecules are listed with their measured pIC50 values.

> print(dat)
                                   molecule                system        result
1  Cc1ccc([C@@H]2CC(F)(F)[C@@H](C)CN2C(=O)C(=O)Nc2cnc(N)c(C)c2)cn1 (single isomer, unassigned) [Compound 944]  PRMT5 (Homo sapiens)        < 6.30
2  CC[C@@H]1CC[C@@H](c2cn[nH]c2)N(C(=O)C(=O)Nc2cnc(N)c(C)c2)C1 (racemic) [Compound 1032]  PRMT5 (Homo sapiens)  6.30 to 7.30
3  C[C@@H]1CC[C@@H](c2ccc(F)c(F)c2)N(C(=O)C(=O)Nc2cncc(C(N)=O)c2)C1 (single isomer, unassigned) [Compound 474]  PRMT5 (Homo sapiens)        < 6.30
4  COc1ncc(NC(=O)C(=O)N2C[C@@H](C)CC[C@H]2c2ccccc2)cc1C(N)=O (single isomer, unassigned) [Compound 322]  PRMT5 (Homo sapiens)        < 6.30
5  Cc1cc(NC(=O)C(=O)N2C[C@@H](C)CC[C@@H]2c2cc(F)cc(Cl)c2)cnc1N (single isomer, unassigned) [Compound 682]  PRMT5 (Homo sapiens)        < 6.30
6  Cc1cc(NC(=O)C(=O)N2C[C@H](C)CC[C@H]2c2ccc(CO)cc2)cnc1N (single isomer, unassigned) [Compound 802]  PRMT5 (Homo sapiens)        < 6.30
7  C[C@@H]1CC[C@@H](c2cccs2)N(C(=O)C(=O)Nc2cncc(C(N)=O)c2)C1 (single isomer, unassigned) [Compound 201]  PRMT5 (Homo sapiens)        < 6.30
8  Cc1cc(NC(=O)C(=O)N2C[C@H](C)CC[C@H]2c2ccc3[nH]ncc3n2)cnc1N (single isomer, unassigned) [Compound 788]  PRMT5 (Homo sapiens)        > 7.30

Incoming: Tell me the measured pIC50 of COc1ncc(NC(=O)C(=O)N2C[C@@H](C)CC[C@@H]2c2ccc(NS(C)(=O)=O)nc2)cc1C(N)=O (single isomer, unassigned) [Compound 999] , please.
Outgoing: < 6.30

Incoming: Tell me the measured pIC50 of C[C@@H]1CC[C@@H](c2ccn(-c3cc[nH]n3)n2)N(C(=O)C(=O)Nc2cncc(C(N)=O)c2)C1 (single isomer, unassigned) [Compound 899] , please.
Outgoing: 6.30 to 7.30

Incoming: Tell me the measured pIC50 of Cc1cc(NC(=O)C(=O)N2C[C@H](C)CC[C@H]2c2ccc3nn(C)cc3c2)cnc1N (single isomer, unassigned) [Compound 1044] , please.
Outgoing: > 7.30

Incoming: Tell me the measured pIC50 of Cc1cc(NC(=O)C(=O)N2CC(C)CCC2C2CNC(=O)C2)cnc1N (stereo not shown) [Compound 210] , please.
Outgoing: 6.30 to 7.30

Incoming: Tell me the measured pIC50 of C[C@H]1CC[C@H](c2ccc3sccc3c2)N(C(=O)C(=O)Nc2cncc(C(N)=O)c2)C1 (single isomer, unassigned) [Compound 585] , please.
Outgoing: > 7.30

* * *

test system: HAP1 MTAP-deleted cell line; experiment: Viability assay, MTAP-deleted cell line; type: cell-based; conditions: Homo sapiens, HAP1, viability, HAP1 MTAP-deleted cell line; read-out: HAP1 MTAP deleted viability
PARAMETER: IC50

Recorded results for 3 molecules are shown here.
> print(dat)
                                   molecule  parameter     result
1  COc1ncc(NC(=O)C(=O)N2C[C@@H](C)CC[C@@H]2c2ccc3sc([C@H]4CCCN(C)C4)nc3c2)cc1C(N)=O       IC50  < 1000 nM
2  C[C@H]1CC[C@H](c2ccc3sc(C4CCN(C)CC4)nc3c2)N(C(=O)C(=O)Nc2cnc(OC(F)(F)F)c(C(N)=O)c2)C1 (single isomer, unassigned)       IC50  < 1000 nM
3  COc1ncc(NC(=O)C(=O)N2C[C@@H](C)CC[C@@H]2c2ccc3sc(CCN(C)C)nc3c2)cc1C(N)=O (racemic)       IC50  < 1000 nM

Incoming: Tell me the measured IC50 of CCc1cc(NC(=O)C(=O)N2C[C@@H](C)CC[C@@H]2c2ccc(N3CCN(C)CC3)cc2)cnc1N (single isomer, unassigned) , please.
Outgoing: < 1000 nM

* * *

molecular target: PRMT5 (Homo sapiens, UniProt O14744); construct: purchased Viva (custom protein); test: PRMT5 biochemical IC50 assay with MTA as cofactor; settings: PRMT5, MTA as cofactor; read-out: MTA IC50
pIC50: −log10 of the molar value.
PARAMETER: pIC50

> print(dat)
                                   compound        result
1  COc1ncc(NC(=O)C(=O)N2C[C@H](C)CC[C@H]2C2CCCC2)cc1C(N)=O (single isomer, unassigned)        > 7.30
2  COc1cc([C@@H]2CC[C@@H](C)CN2C(=O)C(=O)Nc2cncc(C(N)=O)c2)ccn1 (single isomer, unassigned) [Compound 532]        > 7.30
3  NC(=O)c1cc(NC(=O)C(=O)N2CCCCC2c2ccccc2)cnc1N (stereo not shown)  6.30 to 7.30
4  [2H]c1c([2H])c([C@@]2([2H])CC[C@H](C)CN2C(=O)C(=O)Nc2cncc(C(N)=O)c2)c([2H])c([2H])c1F (racemic)  6.30 to 7.30
5  COc1ncc(NC(=O)C(=O)N2C[C@@H](C)CC[C@H]2C2CCCC2)cc1C(N)=O (single isomer, unassigned)        < 6.30
6  Cc1cc(NC(=O)C(=O)N2C[C@H](C)CC[C@H]2c2cccc3[nH]cnc23)cnc1N (single isomer, unassigned)        > 7.30

Incoming: Tell me the measured pIC50 of CCc1cc(NC(=O)C(=O)N2C[C@@H](C)CC[C@@H]2c2ccc(C(=O)NC)s2)cnc1N (single isomer, unassigned) , please.
Outgoing: > 7.30

Incoming: Tell me the measured pIC50 of CNc1cccc([C@@H]2CCCCN2C(=O)C(=O)Nc2cncc(C(N)=O)c2)c1 (single isomer, unassigned) , please.
Outgoing: > 7.30

Incoming: Tell me the measured pIC50 of CCc1cc(NC(=O)C(=O)N2C[C@H](C)CC[C@H]2c2ccc3[nH]c(=O)ccc3c2)cnc1N (single isomer, unassigned) , please.
Outgoing: < 6.30

Incoming: Tell me the measured pIC50 of Cc1cc(NC(=O)C(=O)N2C[C@@H](C)CC[C@@H]2c2cccc(C(F)(F)F)c2)cnc1N (single isomer, unassigned) , please.
Outgoing: < 6.30

Incoming: Tell me the measured pIC50 of COc1ncc(NC(=O)C(=O)N2C[C@H](C)CC[C@H]2c2ccc3[nH]ncc3c2)cc1C(N)=O (single isomer, unassigned) , please.
Outgoing: < 6.30

Incoming: Tell me the measured pIC50 of Cc1cc(NC(=O)C(=O)N2C[C@H](C)CC[C@H]2c2cccc(S(C)(=O)=O)c2)cnc1N (racemic) [Compound 667] , please.
Outgoing: 6.30 to 7.30

Incoming: Tell me the measured pIC50 of Cc1cc(NC(=O)C(=O)N2C[C@@H](C)CC[C@@H]2c2ccc3sc(N)nc3c2)cnc1N (single isomer, unassigned) , please.
Outgoing: > 7.30
